Values compiled from PubChem BioAssay AID651674.

# assay.system: Hepatocyte nuclear factor 4-alpha (Homo sapiens)
# method.notes: HNF4 dimerization inhibitors, counter-screen for ABHD5-PLIN5 interaction inhibitor project, biochemical, split-luciferase complementation, luminescence (AID 651674);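 note: light from luciferase halves that rejoin when HNF4 fusion proteins dimerize; 0% = DMSO only wells and the 100% control is not given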
# run.conditions: at 4 µM, stronger effect = higher value
Out of some 2,200 compounds screened, about 1,700 (77%) were called active. The set was probably picked from earlier hits. A selection follows.
readout.type: inhibition

Worked examples, 2 compounds total:
| compound.structure | assay.system | result |
| --- | --- | --- |
| CCOC(=O)[C@]12Cc3ccccc3[C@H]1N(C1CCCCC1)C(=O)c1cc(OC)ccc12 | Hepatocyte nuclear factor 4-alpha (Homo sapiens) | 27.9% (active) |
| Cc1cccc(N2C(=O)NC(=O)/C(=C\c3cnn(-c4ccccc4)c3)C2=O)c1 | Hepatocyte nuclear factor 4-alpha (Homo sapiens) | 68.7% (active) |

Quick batch: inhibition for everything below.
1. CCc1nnc(NS(=O)(=O)c2ccc(N=Cc3c(O)n(-c4ccccc4)c(=O)[nH]c3=O)cc2)s1
2. COc1ccc(CN2C(=O)NC(=O)/C(=C\c3ccc(OC)c(OC)c3OC)C2=O)cc1

1. 33.6% (active)
2. 31.3% (active)
